assay-procedure: Stability of the compound at 136 uM after 4 hrs in presence of human neutrophil elastase
Assay type: ADME
property: Stability

1) CC[C@@H](C)[C@@H](NC(=O)[C@H](CCCNC(=N)N)NC(=O)[C@H](CCC(N)=O)NC(=O)[C@@H](NC(=O)[C@H](NC(=O)[C@H](CCCNC(=N)N)NC(=O)[C@H](CCCCN)NC(=O)[C@@H](Cc1ccccc1)NC(=O)[C@H](CCC(=O)O)NC(C)=O)[C@H](C)CC)C(C)C)C(=O)N[C@@H](CCCCN)C(=O)N[C@@H](CC(=O)O)C(=O)N[C@H](Cc1ccccc1)C(=O)N[C@@H](CC(C)C)C(=O)N[C@@H](CCCNC(=N)N)C(=O)N[C@@H](CC(N)=O)C(=O)N[C@@H](CC(C)C)C(=O)N[C@H](C(N)=O)C(C)C
Stable
2) CC[C@@H](C)[C@@H](NC(=O)[C@H](CCCNC(=N)N)NC(=O)[C@H](CCC(N)=O)NC(=O)[C@@H](NC(=O)[C@H](NC(=O)[C@H](CCCNC(=N)N)NC(=O)[C@H](CCCCN)NC(=O)[C@@H](Cc1ccccc1)NC(=O)[C@@H](N)CCC(=O)O)[C@H](C)CC)C(C)C)C(=O)N[C@@H](CCCCN)C(=O)N[C@@H](CC(=O)O)C(=O)N[C@H](Cc1ccccc1)C(=O)N[C@@H](CC(C)C)C(=O)N[C@@H](CCCNC(=N)N)C(=O)N[C@@H](CC(N)=O)C(=O)N[C@@H](CC(C)C)C(=O)N[C@H](C(=O)O)C(C)C
Stable
